# key: entry, value: pEC50
Target: Glycogen synthase kinase-3 beta (Homo sapiens)
Sequence (P49841 whole entry): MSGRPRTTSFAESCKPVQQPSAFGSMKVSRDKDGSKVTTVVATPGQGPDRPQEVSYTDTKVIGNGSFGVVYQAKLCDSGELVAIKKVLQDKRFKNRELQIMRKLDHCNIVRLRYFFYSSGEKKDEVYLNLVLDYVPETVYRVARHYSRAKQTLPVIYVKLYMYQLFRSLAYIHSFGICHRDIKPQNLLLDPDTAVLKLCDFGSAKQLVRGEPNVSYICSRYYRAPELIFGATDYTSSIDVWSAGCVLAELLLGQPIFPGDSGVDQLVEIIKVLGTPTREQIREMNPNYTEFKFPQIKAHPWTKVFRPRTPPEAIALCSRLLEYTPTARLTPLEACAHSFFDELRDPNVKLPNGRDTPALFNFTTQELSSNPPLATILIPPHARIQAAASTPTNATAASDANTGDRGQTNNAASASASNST
Experiment: concentration-response blocking of human GSK3B – biochemical, luminescence, cell-free homogeneous, retest, dose response (AID 434954)
# reply with the number alone; pEC50 is -log10 of concentration in mol/L

compound	pEC50
COc1ccc2nc(NC(=O)CSc3nnc(N)[nH]3)sc2c1	5.51

Proceeding to the next compound to report its pEC50.
## Input Give the value of pEC50 reported for the following: CCCCC(CC)C(=O)Nc1ncc([N+](=O)[O-])s1 (stereo not given)
## Output 4.19

###

Target: Glycogen synthase kinase-3 beta (Homo sapiens)
Experiment: concentration-response blocking of human GSK3B – biochemical, luminescence, cell-free homogeneous, retest, dose response (AID 434954)
pEC50: −log10 of the molar value.
# key: entry, value: pEC50

## Input Give the value of pEC50 reported for the following: COc1ccc(-c2nn(-c3ccccc3)cc2/C=C/C(=O)N2CCOCC2)cc1OC
## Output < 3.52

## Input Give the value of pEC50 reported for the following: O=[N+]([O-])c1cc(Cl)ccc1N1CCCCC1
## Output < 3.52

## Input Give the value of pEC50 reported for the following: COCCn1c(SCC(=O)NCc2ccccc2)nc2ccccc21
## Output < 3.52

## Input Give the value of pEC50 reported for the following: CN(C)Cc1ccc(-c2nc3cccc4c3n2CCNC4=O)cc1
## Output 4.56

## Input Give the value of pEC50 reported for the following: CC1(C)CC(=O)C=C(Nc2ccc3c(c2)OCCO3)C1
## Output < 3.52

## Input Give the value of pEC50 reported for the following: Cc1c(O)ccc2c(-c3ccccc3)cc(=O)oc12
## Output < 3.52

## Input Give the value of pEC50 reported for the following: CCCN(CCC)CCCNc1ccc2nnc(-c3ccc(F)cc3)n2n1
## Output 4.95

## Input Give the value of pEC50 reported for the following: O=c1cc(-c2ccccc2Cl)oc2c(NS(=O)(=O)c3cccs3)ccc(O)c12
## Output < 3.52

## Input Give the value of pEC50 reported for the following: Fc1cccc(Cl)c1CSc1nnc(-c2ccncc2)o1
## Output 5.03

## Input Give the value of pEC50 reported for the following: COc1cc(/C=N/NC(=O)c2ccc3ccccc3c2)ccc1Oc1ccc([N+](=O)[O-])cn1
## Output < 3.52
